# System under test: T1, CD228 on A375 and A2058 cells (human, UniProt P08582 20-709)
# T1 construct: whole, on cells; GPI-anchored cell surface protein; also called CD228 on A375 cells; CD228 on A2058 cells
# T1 sequence (looked up): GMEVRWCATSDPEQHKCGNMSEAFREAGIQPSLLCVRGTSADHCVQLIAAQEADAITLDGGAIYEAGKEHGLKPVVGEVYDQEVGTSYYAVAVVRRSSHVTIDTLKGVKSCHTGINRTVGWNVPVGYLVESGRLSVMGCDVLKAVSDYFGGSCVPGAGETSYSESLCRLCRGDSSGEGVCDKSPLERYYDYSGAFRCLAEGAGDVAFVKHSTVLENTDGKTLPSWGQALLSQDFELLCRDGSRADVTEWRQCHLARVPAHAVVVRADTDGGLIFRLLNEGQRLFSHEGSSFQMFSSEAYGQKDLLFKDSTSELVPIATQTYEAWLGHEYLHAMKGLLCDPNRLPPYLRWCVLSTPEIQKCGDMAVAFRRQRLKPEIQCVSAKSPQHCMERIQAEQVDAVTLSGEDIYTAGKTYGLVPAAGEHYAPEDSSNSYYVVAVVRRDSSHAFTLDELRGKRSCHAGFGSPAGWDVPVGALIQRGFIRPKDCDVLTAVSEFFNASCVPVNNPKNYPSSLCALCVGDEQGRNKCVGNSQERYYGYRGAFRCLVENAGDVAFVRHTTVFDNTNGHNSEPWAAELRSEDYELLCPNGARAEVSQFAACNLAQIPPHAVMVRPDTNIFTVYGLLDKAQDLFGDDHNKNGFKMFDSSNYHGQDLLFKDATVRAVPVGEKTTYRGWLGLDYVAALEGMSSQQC
# Assay summary: flow cytometry saturation binding on A375 cells (~18K receptors), neutral pH
pEC50: −log10 of the molar value.
Metric: pEC50

- Binder: "hL49 (antibody, V domains shown, Humanized antibody; Only variable domains are tied to it; also called hL49 HALC; hL49 WT) VH: QVQLQESGPGLVKPSETLSLTCTVSGDSITSGYWNWIRQPPGKGLEYIGYISDSGITYYNPSLKSRVTISRDTSKNQYSLKLSSVTAADTAVYYCARRTLATYYAMDYWGQGTLVTVSS VL: DFVMTQSPLSLPVTLGQPASISCRASQSLVHSDGNTYLHWYQQRPGQSPRLLIYRVSNRFSGVPDRFSGSGSGTDFTLKISRVEAEDVGVYYCSQSTHVPPTFGQGTKLEIK"
  Metric: "pEC50"
  Quantitative result: 8.96
- Binder: "hL49_3X_Gln (antibody, V domains shown, hL49 triple mutant: all three light chain CDR histidines changed to glutamine; also called 3X-Gin) VH: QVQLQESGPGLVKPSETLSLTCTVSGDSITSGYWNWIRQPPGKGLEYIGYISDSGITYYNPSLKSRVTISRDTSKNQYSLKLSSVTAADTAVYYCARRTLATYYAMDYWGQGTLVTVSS VL: DFVMTQSPLSLPVTLGQPASISCRASQSLVQSDGNTYLQWYQQRPGQSPRLLIYRVSNRFSGVPDRFSGSGSGTDFTLKISRVEAEDVGVYYCSQSTQVPPTFGQGTKLEIK"
  Metric: "pEC50"
  Quantitative result: 8.68
- Binder: "hL49_34_Ala (antibody, V domains shown, hL49 variant with the light chain CDR-L1 histidine 34 changed to alanine; also called hL49_H34A) VH: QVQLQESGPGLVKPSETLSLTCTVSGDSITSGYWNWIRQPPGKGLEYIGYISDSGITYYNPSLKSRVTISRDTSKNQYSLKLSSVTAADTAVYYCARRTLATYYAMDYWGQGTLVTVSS VL: DFVMTQSPLSLPVTLGQPASISCRASQSLVHSDGNTYLAWYQQRPGQSPRLLIYRVSNRFSGVPDRFSGSGSGTDFTLKISRVEAEDVGVYYCSQSTHVPPTFGQGTKLEIK"
  Metric: "pEC50"
  Quantitative result: 8.80
